target: T1, human 5T4-His protein (human, UniProt Q13641 32-355)
T1 construct: also called recombinant 5T4 protein (human 5T4-his tag); human 5T4 protein; not shown: His tag
T1 sequence (looked up): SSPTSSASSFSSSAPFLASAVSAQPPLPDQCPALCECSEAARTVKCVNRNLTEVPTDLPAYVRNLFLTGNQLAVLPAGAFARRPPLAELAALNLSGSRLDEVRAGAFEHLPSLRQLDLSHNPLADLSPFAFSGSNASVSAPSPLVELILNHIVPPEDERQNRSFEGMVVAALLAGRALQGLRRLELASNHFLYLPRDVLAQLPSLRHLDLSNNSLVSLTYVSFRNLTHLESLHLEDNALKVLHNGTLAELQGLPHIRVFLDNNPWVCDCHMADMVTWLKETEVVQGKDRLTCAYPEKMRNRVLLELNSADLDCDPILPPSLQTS
measurement_protocol: SPR Biacore, Protein A capture, 50 nM 5T4-His
Description: The binding of the 159D5 humanized antibodies to recombinant 5T4 protein (human 5T4-his tag) was tested with Biacore using a capture method. The mAbs were captured using Protein A chip. 50 nM of human 5T4-his tag protein was injected over captured antibody for 3 mins at a flow rate of 30 μl/min. The antigen was allowed to dissociate for 600 s. All the experiments were carried out on a Biacore T200. Data analysis was carried out using the Biacore T200 evaluation software.
Answer each item with its documented kon.
Write down the numeric answer in M⁻¹ s⁻¹ and omit the unit.

Lookup result for Hu159D5-4 (antibody, V domains shown, humanized) VH: EVQLVESGGGVVQPGRSLRLSCAASGFTFSNFGMHWVRQAPGKGLEWVAYISSGSSTFYYADSVKGRFTISRDNSKNTLYLQMNSLRAEDTAVYYCARSPAYYRYGLDYWGQGTTVTVSS VL: DIVMTQSPDSLAVSLGERATINCRASQSVSSSTFSYMHWYQQKPGQPPKLLIYSSSNLESGVPDRFSGSGSGTDFTLTISSLQAEDVAVYYCQHSWEIPYTFGGGTKVEIK ; measured kon: 60200

Lookup result for Hu159D5-5 (antibody, V domains shown, humanized) VH: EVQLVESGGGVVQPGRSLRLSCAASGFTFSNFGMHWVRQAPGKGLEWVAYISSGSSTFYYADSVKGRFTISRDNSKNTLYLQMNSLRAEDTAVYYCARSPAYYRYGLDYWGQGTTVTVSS VL: DIVMTQSPDSLAVSLGERATINCRASQSVSSSTFSYMHWYQQKPGQPPKLLIKSSSNLESGVPDRFSGSGSGTDFTLTISSLQAEDVAVYYCQHSWEIPYTFGGGTKVEIK ; measured kon: 55600

Lookup result for Hu159D5-6 (antibody, V domains shown, humanized) VH: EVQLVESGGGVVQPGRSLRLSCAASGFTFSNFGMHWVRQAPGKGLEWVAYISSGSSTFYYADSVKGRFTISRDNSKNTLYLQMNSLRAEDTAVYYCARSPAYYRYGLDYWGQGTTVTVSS VL: DIVLTQSPDSLAVSLGERATINCRASQSVSSSTFSYMHWYQQKPGQPPKLLIKSSSNLESGVPDRFSGSGSGTDFTLTISSLQAEDVAVYYCQHSWEIPYTFGGGTKVEIK ; measured kon: 252000

Every entry's value here was drawn from patent US20250154277A1.
